B1: Pistol ribozyme (parent)
chain: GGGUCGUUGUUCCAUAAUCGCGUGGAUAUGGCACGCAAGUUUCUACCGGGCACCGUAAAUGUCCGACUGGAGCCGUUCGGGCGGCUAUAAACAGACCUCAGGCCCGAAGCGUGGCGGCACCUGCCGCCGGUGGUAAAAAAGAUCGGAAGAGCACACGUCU

# Variants of: B1
# Procedure text: aptazyme ON/OFF ratio, guanine; higher = stronger switching; co-transcriptional cleavage with and without guanine
Quantity kind: aptazyme ON/OFF ratio
// no unit, no text: just the number

U7C G9U U10A U11G C12A: 1.08
U7C U8A U10G C12A C13G: 1.07
U7A G9A C12A C13U: 1.37

IN: Supply reported aptazyme ON/OFF ratio belonging to this variant: U7G U8A G9U U10C U11C C13G
OUT: 1.02

IN: Supply reported aptazyme ON/OFF ratio belonging to this variant: U8G G9C U10A U11C C13G
OUT: 1.04

IN: Supply reported aptazyme ON/OFF ratio belonging to this variant: U8C U10G C12G
OUT: 1.07

IN: Supply reported aptazyme ON/OFF ratio belonging to this variant: U7A G9A U11G C12G C13U
OUT: 1.42

IN: Supply reported aptazyme ON/OFF ratio belonging to this variant: U8G G9C U10C U11G C12G C13A
OUT: 1.08

IN: Supply reported aptazyme ON/OFF ratio belonging to this variant: U7A U8C G9C C12G C13U
OUT: 1.18

IN: Supply reported aptazyme ON/OFF ratio belonging to this variant: U7C U8A G9C U10C U11A C13G
OUT: 1.2
